# Test system: Mycobacteroides abscessus
# Assay comment: Antimicrobial activity against Mycobacterium abscessus after 3 to 5 days by broth microdilution method
# Format: functional
Give MIC50 for every item shown.

## Task GET /values?readout=MIC50&item= NC[C@H]1O[C@H](O[C@H]2C(O)[C@@H](O[C@H]3O[C@H](CO)[C@@H](O)[C@H](N)[C@H]3O)[C@H](N)C[C@@H]2N)[C@H](N)C[C@@H]1O (single isomer, unassigned)
## Result 8 µg/mL

## Task What do you have for CN[C@@H]1[C@H](O[C@H]2[C@H](O[C@H]3[C@H](O)[C@@H](O)[C@H](N=C(N)N)[C@@H](O)[C@@H]3N=C(N)N)O[C@@H](C)[C@]2(O)C=O)O[C@@H](CO)[C@H](O)[C@H]1O (stereo in doubt) ?
## Result 128 µg/mL

## Task What do you have for NC[C@H]1O[C@H](O[C@H]2[C@H](O)[C@@H](O[C@H]3O[C@H](CO)[C@@H](O)[C@H](N)[C@H]3O)[C@H](N)C[C@@H]2N)[C@H](O)[C@@H](O)[C@@H]1O ?
## Result 8 µg/mL

## Task What do you have for NCC[C@H](O)C(=O)N[C@@H]1C[C@H](N)[C@@H](O[C@H]2O[C@H](CN)[C@@H](O)[C@H](O)[C@H]2O)[C@H](O)[C@H]1O[C@H]1O[C@H](CO)[C@@H](O)[C@H](N)[C@H]1O ?
## Result 16 µg/mL

## Task What do you have for CN[C@@H]1[C@@H](O)[C@@H](O[C@@H]2[C@@H](O)[C@H](O[C@H]3O[C@H](CN)[C@@H](O)[C@H](O)[C@H]3O)[C@@H](N)C[C@H]2NC(=O)[C@@H](O)CN)OC[C@]1(C)O ?
## Result 8 µg/mL

---

# System: Mycobacteroides chelonae
# Assay comment: Antimicrobial activity against Mycobacterium chelonae after 3 to 5 days by broth microdilution method
# Type: functional
Give MIC90 for every item shown.
Please state the figure in µg/mL; there is no need to write the unit.

## Task Enter reported MIC90 observed with Mycobacteroides chelonae for NC[C@H]1O[C@H](O[C@H]2[C@H](O)[C@@H](O[C@H]3O[C@H](CO)[C@@H](O)[C@H](N)[C@H]3O)[C@H](N)C[C@@H]2N)[C@H](O)[C@@H](O)[C@@H]1O [KANAMYCIN]
## Result 8

## Task What do you have for NC[C@H]1O[C@H](O[C@H]2C(O)[C@@H](O[C@H]3O[C@H](CO)[C@@H](O)[C@H](N)[C@H]3O)[C@H](N)C[C@@H]2N)[C@H](N)C[C@@H]1O (single isomer, unassigned) [TOBRAMYCIN] ?
## Result 32

## Task What do you have for CN[C@@H]1[C@@H](O)[C@@H](O[C@@H]2[C@@H](O)[C@H](O[C@H]3O[C@H](CN)[C@@H](O)[C@H](O)[C@H]3O)[C@@H](N)C[C@H]2NC(=O)[C@@H](O)CN)OC[C@]1(C)O [ISEPAMICIN] ?
## Result 8

## Task What do you have for CN[C@@H]1[C@H](O[C@H]2[C@H](O[C@H]3[C@H](O)[C@@H](O)[C@H](N=C(N)N)[C@@H](O)[C@@H]3N=C(N)N)O[C@@H](C)[C@]2(O)C=O)O[C@@H](CO)[C@H](O)[C@H]1O (stereo in doubt) [STREPTOMYCIN] ?
## Result 128

## Task What do you have for NCC[C@H](O)C(=O)N[C@@H]1C[C@H](N)[C@@H](O[C@H]2O[C@H](CN)[C@@H](O)[C@H](O)[C@H]2O)[C@H](O)[C@H]1O[C@H]1O[C@H](CO)[C@@H](O)[C@H](N)[C@H]1O [AMIKACIN] ?
## Result 8
